# EC50 listing for each entry below
# SYSTEM TESTED: T1, Human interleukin-18 (recombinant human IL-18) (human, UniProt Q14116 37-193)
# T1 construct: also called hIL-18
# T1 sequence: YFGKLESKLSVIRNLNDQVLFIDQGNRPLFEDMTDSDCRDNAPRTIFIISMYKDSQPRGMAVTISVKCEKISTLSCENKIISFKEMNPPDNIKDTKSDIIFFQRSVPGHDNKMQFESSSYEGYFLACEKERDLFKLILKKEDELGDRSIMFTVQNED
# ASSAY METHOD TEXT: ELISA, human IL-18 captured by 16D10, antibody titrated
OBSERVED PROPERTY: EC50 (µg/mL)

>>> recorded_measurement("H1L3 humanised anti-IL-18 antibody (antibody, human IgG1, kappa, V domains shown, Human IgG1 / kappa) VH: QVQLVQSGAEVKKPGASVKVSCKVSGEISTGYYFHWVRQAPGKGLEWMGRIDPEDDSTKYAERFKDRVTMTEDTSTDTAYMELSSLRSEDTAVYYCTTWRIYRDSSGRPFYVMDAWGQGTLVTVSS VL: DIQMTQSPSSVSASVGDRVTITCLASEDIYTYLTWYQQKPGKAPQLLIYGANKLQDGVPSRFSGSGSGTDYTLTISSLQPEDEGDYYCLQGSKFPLTFGQGTKLEIKR")
0.011
>>> recorded_measurement("H1L2 humanised anti-IL-18 antibody (antibody, human IgG1, kappa, V domains shown, Human IgG1 / kappa) VH: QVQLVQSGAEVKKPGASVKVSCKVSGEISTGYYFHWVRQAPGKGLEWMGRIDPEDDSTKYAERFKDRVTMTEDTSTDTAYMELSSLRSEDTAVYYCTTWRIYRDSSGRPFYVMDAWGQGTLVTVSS VL: DIQMTQSPSSVSASVGDRVTITCLASEDIYTYLTWYQQKPGKAPKLLIYGANKLQDGVPSRFSGSGSGTDYTLTISSLQPEDFATYYCLQGSKFPLTFGQGTKLEIKR")
0.011
>>> recorded_measurement("H3L2 humanised anti-IL-18 antibody (antibody, human IgG1, kappa, V domains shown, Human IgG1 / kappa) VH: QVQLVQSGAEVKKPGASVKVSCKVSGEISTGYYFHFVRRRPGKGLEWMGRIDPEDDSTKYAERFKDRVTMTADTSTDTAYMELSSLRSEDTATYFCTTWRIYRDSSGRPFYVMDAWGQGTLVTVSS VL: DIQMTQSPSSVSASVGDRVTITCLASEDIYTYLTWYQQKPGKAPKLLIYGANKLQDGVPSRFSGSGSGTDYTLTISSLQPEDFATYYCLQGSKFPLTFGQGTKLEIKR")
0.008

This collection of values is drawn from patent US8133978.
